What IC50 was measured for each of the following?
Target: γ-secretase, Aβ(1-42) production in SH-SY5Y neuroblastoma cells overexpressing SPA4CT (Homo sapiens)
Construct: Human SH-SY5Y neuroblastoma cells overexpressing the direct γ-secretase substrate SPA4CT; endogenous in cells
Test: Cell-based γ-secretase assay, Aβ(42) detection
Settings: overnight incubation

Consider the worked cases shown below.
Molecule | Experimental Result
O=C1C(n2cc(-c3ccc(-c4ccnnc4)cc3)nn2)CCc2c(F)cccc2N1CC(F)(F)F (racemic) [Example 123] | 83 nM
O=C1C(n2cc(-c3ccc(Oc4cccnc4)cc3)nn2)CCc2c(F)cccc2N1CC(F)(F)F (stereo not drawn) [Example 61] | 537 nM
COc1cc(-c2nc(C)no2)ccc1-c1cn(C2CCc3c(F)cccc3N(CC(F)(F)F)C2=O)nn1 (stereo not drawn) [Example 57] | 431 nM
O=C1C(n2cc(-c3ncc(-c4ccncc4)cn3)nn2)CCc2c(F)cccc2N1CC(F)(F)F (stereo not drawn) [Example 2] | 1330 nM
COc1cc(-c2cn(C3CCc4c(F)cccc4N(CC(F)(F)F)C3=O)nn2)ccc1Nc1cccnc1 (stereo not drawn) [Example 92] | 226 nM

Pending molecule:
Can you share its IC50? I mean this molecule: COc1cc(-c2cn(C3CCc4ccccc4N(CC(F)(F)F)C3=O)nn2)ccc1-c1ccncc1 (stereo not drawn) [Example 1]
80 nM

The reported measurements were obtained from patent US8575150B2.
